src = patent US8211915B2

Target: hM3 muscarinic receptor subtype (Homo sapiens)
Sequence (P20309 whole entry): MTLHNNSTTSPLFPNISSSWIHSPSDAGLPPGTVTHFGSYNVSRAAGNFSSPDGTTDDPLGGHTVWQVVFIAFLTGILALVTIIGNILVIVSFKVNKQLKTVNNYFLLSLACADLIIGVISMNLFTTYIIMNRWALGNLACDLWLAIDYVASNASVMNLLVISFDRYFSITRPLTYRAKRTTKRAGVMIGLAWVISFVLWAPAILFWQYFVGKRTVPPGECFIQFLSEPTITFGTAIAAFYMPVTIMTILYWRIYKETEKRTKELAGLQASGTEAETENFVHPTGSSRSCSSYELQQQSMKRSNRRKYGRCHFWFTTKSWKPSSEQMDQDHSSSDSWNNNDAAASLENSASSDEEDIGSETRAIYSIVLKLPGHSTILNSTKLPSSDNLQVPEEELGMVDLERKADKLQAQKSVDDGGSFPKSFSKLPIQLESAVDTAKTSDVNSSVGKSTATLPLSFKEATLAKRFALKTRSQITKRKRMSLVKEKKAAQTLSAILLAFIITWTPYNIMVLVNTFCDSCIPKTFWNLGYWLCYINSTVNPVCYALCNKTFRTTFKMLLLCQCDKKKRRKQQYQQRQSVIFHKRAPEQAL
Readout type: Ki

INPUT: Please give the measured Ki for this molecule: NC(=O)C1CCN(Cc2ccc(NC(=O)CCN3CCC(OC(=O)Nc4ccccc4-c4ccccc4)CC3)cc2)CC1
OUTPUT: < 5 nM
